# system-under-test: Tissue factor (Homo sapiens)
# Sequence (P13726 whole entry): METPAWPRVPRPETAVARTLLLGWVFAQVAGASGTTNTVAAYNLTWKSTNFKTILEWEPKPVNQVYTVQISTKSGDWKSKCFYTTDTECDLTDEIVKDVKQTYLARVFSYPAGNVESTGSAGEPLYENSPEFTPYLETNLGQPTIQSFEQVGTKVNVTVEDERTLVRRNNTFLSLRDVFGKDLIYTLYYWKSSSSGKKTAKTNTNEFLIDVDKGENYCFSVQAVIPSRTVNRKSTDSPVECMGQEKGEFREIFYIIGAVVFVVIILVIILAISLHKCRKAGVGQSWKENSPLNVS
# experiment: Inhibition of LPS-induced tissue factor activity in HUVEC preincubated for 4 hrs assessed after 4 hrs of LPS challenge by one stage clotting assay
experimental-readout: IC50 (µM)

compound	IC50 / µM
CCC(=O)CCCCC[C@@H]1NC(=O)[C@H]2CCCCN2C(=O)[C@H]([C@@H](C)CC)NC(=O)[C@H](Cc2cn(OC)c3ccccc23)NC1=O	0.15

A. Nc1ccccc1NC(=O)c1ccc(CNC(=O)OCc2cccnc2)cc1 [benzamide-type inhibitor, 3]
B. CCCC(=O)O
C. CCCC(CCC)C(=O)O [Valproinsaeure]
Please put the entries in order of rising IC50. Arrange the labels as the request states and list them.
A, B, C
(A: 6 µM, B: 1000 µM, C: 1500 µM)
